- Assay Target: β-secretase(BACE) (Homo sapiens)
- Construct: purchased Panvera
- Test Description: BACE FS1% Inhibition Assay
- Type: biochemical
- Condition Details: 0.3 μM test compound; FS1 substrate
Listed molecules paired with reported % Inhibition (FS)
Value expressed in %; do not type the unit.

Take a look at these entries with their results.
[[record]]
molecule = "COc1ccccc1-c1ccc2c(c1)CN([C@@H](CCC(=O)N(C)Cc1cnn(-c3ccccc3)c1)C1CCCCC1)C(N)=N2 [Compound 717]"
units = "%"
numeric_value = 33

[[record]]
molecule = "CCCC(=O)NCCN1Cc2cc(-c3cnc4ccccc4c3)ccc2N=C1N [Compound 673]"
units = "%"
numeric_value = 34


Please indicate % Inhibition (FS) recorded for CC(C)(C)C(=O)NCCN1Cc2cc(-c3ccc4ccccc4c3)ccc2N=C1N [Compound 667]
33

Please indicate % Inhibition (FS) recorded for CN(Cc1cc(-c2ccccc2)on1)C(=O)CC[C@@H](C1CCCCC1)N1Cc2cc(-c3ccccc3F)ccc2N=C1N [Compound 724]
38

====

- Assay Target: β-secretase(BACE) (Homo sapiens, UniProt P56817)
- Construct: purchased Panvera
- Sequence (P56817 46-501): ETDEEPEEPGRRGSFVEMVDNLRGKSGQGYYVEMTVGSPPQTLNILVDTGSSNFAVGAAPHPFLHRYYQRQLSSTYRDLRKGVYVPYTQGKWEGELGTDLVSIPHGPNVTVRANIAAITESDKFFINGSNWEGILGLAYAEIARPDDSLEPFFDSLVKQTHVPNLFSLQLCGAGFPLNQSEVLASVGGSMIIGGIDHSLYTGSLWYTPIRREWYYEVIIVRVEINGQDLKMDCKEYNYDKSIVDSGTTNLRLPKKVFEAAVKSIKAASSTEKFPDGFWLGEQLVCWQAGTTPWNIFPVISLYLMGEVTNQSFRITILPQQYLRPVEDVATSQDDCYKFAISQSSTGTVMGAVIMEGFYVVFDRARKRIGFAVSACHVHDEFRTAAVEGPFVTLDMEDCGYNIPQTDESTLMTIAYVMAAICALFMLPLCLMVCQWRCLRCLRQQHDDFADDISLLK
- Test Description: BACE Assay-1 (MCA-substrate, IC50)
- Type: biochemical
- Condition Details: procedure of Example 158; read-out: IC50 μM (158)
Property Name: log10 of IC50 (log10 of the value in µM)
Log10 applied to IC50; unit prior to transform: µM.

[[record]]
compound = "CN(C(=O)c1cccc(CN2Cc3cc(-c4ccccc4CO)ccc3N=C2N)c1)C1CCCCC1"
property_name = "log10 of IC50"
numeric_value = -1.07

[[record]]
compound = "CN(C(=O)CCN1Cc2cc(C(=O)c3ccc(F)cc3)ccc2N=C1N)C1CCCCC1"
property_name = "log10 of IC50"
numeric_value = 1.41

[[record]]
compound = "CCCC(CCC)C(=O)NCCN1Cc2cc(Oc3ccccc3)ccc2N=C1N"
property_name = "log10 of IC50"
numeric_value = -1.24

[[record]]
compound = "CCCN1Cc2cc([S+]([O-])c3cccc(NS(=O)(=O)c4ccccc4)c3)ccc2N=C1N (centres unmarked)"
property_name = "log10 of IC50"
numeric_value = 0.52

[[record]]
compound = "CCCN1Cc2cc(-c3ccccc3CCNS(=O)(=O)c3ccccc3)ccc2N=C1N"
property_name = "log10 of IC50"
numeric_value = -0.55


Please indicate log10 of IC50 recorded for "CN(CCN1Cc2cc(C(=O)c3ccccc3)ccc2N=C1N)C(=O)C1CCCCC1"
0.69

Please indicate log10 of IC50 recorded for "CCCN1Cc2cc(Oc3cccc(NS(=O)(=O)c4cccs4)c3)ccc2N=C1N"
-0.31

====

- Assay Target: β-secretase(BACE) (Homo sapiens, UniProt P56817)
- Construct: purchased Panvera
- Test Description: BACE FS1% Inhibition Assay
- Assay type: biochemical
- Condition Details: 1 μM test compound; FS1 substrate; read-out: % Inhibition (FS) 1 μM
Listed molecules paired with reported inhibition at 1 µM
Value expressed in %; do not type the unit.

Lab note: record inhibition at 1 µM of "CN(C(=O)c1ccc(CN2Cc3cc(Oc4ccccc4)ccc3N=C2N)o1)C1CCCCC1" tested on β-secretase(BACE) (Homo sapiens, UniProt P56817).
50

====

- Assay Target: β-secretase(BACE) (Homo sapiens, UniProt P56817)
- Construct: purchased Panvera
- Test Description: BACE FS1% Inhibition Assay
- Format: biochemical
- Condition Details: 1 μM test compound; FS1 substrate
Property Name: % Inhibition (FS) 1 μM

[[record]]
compound = "CN(C(=O)c1cccc(CN2Cc3cc(Sc4cccc5ccccc45)ccc3N=C2N)c1)C1CCCCC1"
property_name = "% Inhibition (FS) 1 μM"
result = "<30%"

[[record]]
compound = "CN(C(=O)CCC(c1ccc(-c2ccccc2)cc1)N1Cc2cc(Oc3ccccc3)ccc2N=C1N)C1CCCCC1 (stereo not shown)"
property_name = "% Inhibition (FS) 1 μM"
result = "<30%"

[[record]]
compound = "CN(C(=O)c1cccc(CN2Cc3cc(-c4cccc(-c5ccccc5)c4)ccc3N=C2N)c1)C1CCCCC1"
property_name = "% Inhibition (FS) 1 μM"
result = "31%"

[[record]]
compound = "NC1=Nc2ccc(Oc3ccccc3)cc2CN1CCNC(=O)C(c1ccccc1)c1ccccc1"
property_name = "% Inhibition (FS) 1 μM"
result = "90%"

[[record]]
compound = "NC1=Nc2ccc(-c3ccccc3Cl)cc2CN1CCNC(=O)C12CC3CC(CC(C3)C1)C2"
property_name = "% Inhibition (FS) 1 μM"
result = "51%"

[[record]]
compound = "N#Cc1cccc(C(=O)NCCN2Cc3cc(-c4cncnc4)ccc3N=C2N)c1"
property_name = "% Inhibition (FS) 1 μM"
result = "<30%"

[[record]]
compound = "CC(C)(C)C(=O)Nc1cccc(CN2Cc3cc(Oc4ccccc4)ccc3N=C2N)c1"
property_name = "% Inhibition (FS) 1 μM"
result = "<30%"

[[record]]
compound = "CC(C)(C)OC(=O)Nc1cccc(CN2Cc3cc(Oc4ccccc4)ccc3N=C2N)c1"
property_name = "% Inhibition (FS) 1 μM"
result = "<30%"


Please indicate % Inhibition (FS) 1 μM recorded for "NC1=Nc2ccc(-c3ccccc3)cc2CN1CCNC(=O)Cc1ccccc1"
70%

Please indicate % Inhibition (FS) 1 μM recorded for "CCCC(CCC)C(=O)N1CCC(N2Cc3cc(Oc4ccccc4)ccc3N=C2N)CC1"
<30%

Please indicate % Inhibition (FS) 1 μM recorded for "CN(C(=O)c1cccc(CN2Cc3cc(-c4ccccc4-c4ccccc4)ccc3N=C2N)c1)C1CCCCC1"
<30%

Please indicate % Inhibition (FS) 1 μM recorded for "CC(C)Oc1ccc2c(c1)CN(Cc1cccc(C(=O)N(C)C3CCCCC3)c1)C(N)=N2"
<30%

Please indicate % Inhibition (FS) 1 μM recorded for "NC1=Nc2ccc(Oc3ccccc3)cc2CN1C1CCN(C(=O)C23CC4CC(CC(C4)C2)C3)CC1"
<30%

Please indicate % Inhibition (FS) 1 μM recorded for "CC(C)(C)OC(=O)N1CCC(CN2Cc3cc(Oc4ccccc4)ccc3N=C2N)CC1"
<30%

Please indicate % Inhibition (FS) 1 μM recorded for COc1cccc(OC)c1Oc1ccc2c(c1)CN(CCC(=O)NC1C3CC4CC(C3)CC1C4)C(N)=N2 (stereo not shown)
<30%

====

- Assay Target: β-secretase(BACE) (Homo sapiens, UniProt P56817)
- Construct: purchased Panvera
- Test Description: BACE Assay-1 (MCA-substrate, IC50)
- Assay type: biochemical
- Condition Details: procedure of Example 158; read-out: IC50 μM (158)
Field: label. Allowed values: true (1) (IC50 < 0.5 µM) or false (0) (IC50 >= 0.5 µM).

Determine whether this compound shows IC50 lower than 0.5 µM (ties excluded): CN(C(=O)CCN1Cc2cc(Oc3ccccc3)ccc2N=C1N)C1CCCCC1 [Compound 20]
true (1)

Determine whether this compound shows IC50 lower than 0.5 µM (ties excluded): CCCN1Cc2cc(Oc3cccc(NS(=O)(=O)c4ccc(-c5ccccc5)cc4)c3)ccc2N=C1N [Compound 280]
false (0)

====

- Assay Target: β-secretase(BACE) (Homo sapiens, UniProt P56817)
- Construct: purchased Panvera
- Test Description: BACE FS1% Inhibition Assay
- Format: biochemical
- Condition Details: 0.3 μM test compound; FS1 substrate
Property Name: % Inhibition (FS) 0.3 μM

Take a look at these entries with their results.
[[record]]
compound = "CCCCC(CC)CN(CC(CC)CCCC)C(=O)c1cccc(CN2Cc3cc(Oc4ccccc4)ccc3N=C2N)c1 (stereo not drawn)"
property_name = "% Inhibition (FS) 0.3 μM"
result = "<30%"

[[record]]
compound = "CN(C(=O)c1cccc(CN2Cc3cc(Oc4cccnc4)ccc3N=C2N)c1)C1CCCCC1"
property_name = "% Inhibition (FS) 0.3 μM"
result = "<30%"

[[record]]
compound = "CN(C(=O)c1cccc(CN2Cc3cc(Oc4cccc(Oc5ccccc5)c4)ccc3N=C2N)c1)C1CCCCC1"
property_name = "% Inhibition (FS) 0.3 μM"
result = "<30%"


Please indicate % Inhibition (FS) 0.3 μM recorded for "CN(C(=O)c1cccc(CN2Cc3cc(Oc4ccccc4S(C)(=O)=O)ccc3N=C2N)c1)C1CCCCC1"
<30%

Please indicate % Inhibition (FS) 0.3 μM recorded for "COc1cccc(C)c1Oc1ccc2c(c1)CN(Cc1cccc(C(=O)N(C)C3CCCCC3)c1)C(N)=N2"
<30%

Please indicate % Inhibition (FS) 0.3 μM recorded for "CN(C(=O)c1cccc(CN2Cc3cc(C=Cc4ccccc4)ccc3N=C2N)c1)C1CCCCC1"
<30%

Please indicate % Inhibition (FS) 0.3 μM recorded for "NC1=Nc2ccc(Oc3ccccc3)cc2CN1[C@H](CNC(=O)C1CCCCC1)C1CCCCC1"
<30%

Please indicate % Inhibition (FS) 0.3 μM recorded for "C=CCc1cccc(C)c1Oc1ccc2c(c1)CN(Cc1cccc(C(=O)N(C)C3CCCCC3)c1)C(N)=N2"
<30%

Please indicate % Inhibition (FS) 0.3 μM recorded for "CN(C(=O)c1ccc(CN2Cc3cc(Oc4ccccc4)ccc3N=C2N)s1)C1CCCCC1"
<30%

Please indicate % Inhibition (FS) 0.3 μM recorded for "Cc1cc(C(=O)NCCN2Cc3cc(-c4ccccc4)ccc3N=C2N)c(C)o1"
<30%

Please indicate % Inhibition (FS) 0.3 μM recorded for "CN(C(=O)c1cccc(CN2Cc3cc(Sc4cccc5ccccc45)ccc3N=C2N)c1)C1CCCCC1"
<30%

Please indicate % Inhibition (FS) 0.3 μM recorded for "CN(C(=O)c1cccc(CN2Cc3cc(Oc4ccccc4-c4nc5ccccc5s4)ccc3N=C2N)c1)C1CCCCC1"
<30%

Please indicate % Inhibition (FS) 0.3 μM recorded for NC1=Nc2ccc(Oc3ccccc3)cc2CN1Cc1cccc(C(=O)N2CCCC3CCCCC32)c1 (stereo not drawn)
<30%

Please indicate % Inhibition (FS) 0.3 μM recorded for "CCc1ccccc1Sc1ccc2c(c1)CN(Cc1cccc(C(=O)N(C)C3CCCCC3)c1)C(N)=N2"
<30%

Please indicate % Inhibition (FS) 0.3 μM recorded for "COc1ccccc1-c1ccc2c(c1)CN([C@@H](CCC(=O)N(C)C1CCCCC1)C1CCCCC1)C(N)=N2"
106%
